Target: AURKB (Homo sapiens)
Sequence (Q96GD4 whole entry): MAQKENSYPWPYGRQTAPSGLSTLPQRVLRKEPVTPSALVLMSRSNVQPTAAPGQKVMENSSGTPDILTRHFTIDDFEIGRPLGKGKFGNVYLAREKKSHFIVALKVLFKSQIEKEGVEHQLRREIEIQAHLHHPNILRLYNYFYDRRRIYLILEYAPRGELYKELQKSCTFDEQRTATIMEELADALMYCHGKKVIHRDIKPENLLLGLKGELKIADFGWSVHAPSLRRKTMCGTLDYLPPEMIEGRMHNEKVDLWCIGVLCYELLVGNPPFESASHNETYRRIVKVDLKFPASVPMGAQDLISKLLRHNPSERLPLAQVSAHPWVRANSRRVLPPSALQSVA
test.readout: Kd (µM)

| compound | test.readout | measured.result |
| --- | --- | --- |
| Brc1cccc(Nc2ncnc3[nH]ccc23)c1 [Compound 2] | Kd | 4.8 |

----------
Target: aurora A kinase (AURKA) (Homo sapiens)
Construct: purchased BPS Bioscience (assay run externally by the vendor)
Sequence (O14965 whole entry): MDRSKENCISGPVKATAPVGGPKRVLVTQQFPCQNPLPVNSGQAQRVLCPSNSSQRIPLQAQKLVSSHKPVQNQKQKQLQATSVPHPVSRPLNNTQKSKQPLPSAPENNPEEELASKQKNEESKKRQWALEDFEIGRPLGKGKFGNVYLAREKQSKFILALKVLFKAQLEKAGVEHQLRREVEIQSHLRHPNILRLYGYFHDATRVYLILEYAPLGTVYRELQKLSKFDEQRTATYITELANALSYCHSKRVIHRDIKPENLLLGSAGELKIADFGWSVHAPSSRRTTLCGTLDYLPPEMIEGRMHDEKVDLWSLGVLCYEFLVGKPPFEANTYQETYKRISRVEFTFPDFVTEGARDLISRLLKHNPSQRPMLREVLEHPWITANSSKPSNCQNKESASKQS
Assay: ADP-Glo kinase assay, Aurora A
Type: biochemical
Details: Log[nM] 5.0; Set1
test.readout: Aurora A % Activity Set1 (%)

| molecule | test.system | test.readout | unit.tag | measured.result |
| --- | --- | --- | --- | --- |
| c1ccc(Nc2ncnc3[nH]ccc23)cc1 | aurora A kinase (AURKA) (Homo sapiens) | Aurora A % Activity Set1 | % | 5 |
| c1ccc(Oc2ccc(Nc3ncnc4[nH]ccc34)cc2)cc1 | aurora A kinase (AURKA) (Homo sapiens) | Aurora A % Activity Set1 | % | 34 |
| FC(F)(F)c1cccc(Nc2ncnc3[nH]ccc23)c1 | aurora A kinase (AURKA) (Homo sapiens) | Aurora A % Activity Set1 | % | 14 |
| Clc1ccc(Nc2ncnc3[nH]ccc23)cc1 | aurora A kinase (AURKA) (Homo sapiens) | Aurora A % Activity Set1 | % | 9 |
| Cc1ccccc1Nc1ncnc2[nH]ccc12 | aurora A kinase (AURKA) (Homo sapiens) | Aurora A % Activity Set1 | % | 11 |
| Cc1cccc(Nc2ncnc3[nH]ccc23)c1 | aurora A kinase (AURKA) (Homo sapiens) | Aurora A % Activity Set1 | % | 4 |
| Nc1nc(Nc2cccc(Br)c2)c2cc[nH]c2n1 | aurora A kinase (AURKA) (Homo sapiens) | Aurora A % Activity Set1 | % | 8 |
| Clc1ccc(Nc2ncnc3[nH]ccc23)cc1Br | aurora A kinase (AURKA) (Homo sapiens) | Aurora A % Activity Set1 | % | 17 |
| COc1ccc(Nc2ncnc3[nH]ccc23)cc1 | aurora A kinase (AURKA) (Homo sapiens) | Aurora A % Activity Set1 | % | 8 |
| Clc1cccc(Nc2ncnc3[nH]ccc23)c1 | aurora A kinase (AURKA) (Homo sapiens) | Aurora A % Activity Set1 | % | 5 |
| c1ccc(Cc2ccc(Nc3ncnc4[nH]ccc34)cc2)cc1 | aurora A kinase (AURKA) (Homo sapiens) | Aurora A % Activity Set1 | % | 30 |
| Fc1cc(Nc2ncnc3[nH]ccc23)ccc1Cl | aurora A kinase (AURKA) (Homo sapiens) | Aurora A % Activity Set1 | % | 6 |
| Brc1cccc(Nc2ncnc3[nH]ccc23)c1 | aurora A kinase (AURKA) (Homo sapiens) | Aurora A % Activity Set1 | % | 5 |
| Clc1ccccc1Nc1ncnc2[nH]ccc12 | aurora A kinase (AURKA) (Homo sapiens) | Aurora A % Activity Set1 | % | 13 |
| Cc1ccc(Nc2ncnc3[nH]ccc23)cc1 | aurora A kinase (AURKA) (Homo sapiens) | Aurora A % Activity Set1 | % | 9 |
| Brc1ccc(Nc2ncnc3[nH]ccc23)cc1 | aurora A kinase (AURKA) (Homo sapiens) | Aurora A % Activity Set1 | % | 10 |
| Clc1ccc(Nc2ncnc3[nH]ccc23)cc1Cl | aurora A kinase (AURKA) (Homo sapiens) | Aurora A % Activity Set1 | % | 11 |

----------
Biological target: EGFR (Homo sapiens, UniProt P00533)
Sequence (P00533 25-1210): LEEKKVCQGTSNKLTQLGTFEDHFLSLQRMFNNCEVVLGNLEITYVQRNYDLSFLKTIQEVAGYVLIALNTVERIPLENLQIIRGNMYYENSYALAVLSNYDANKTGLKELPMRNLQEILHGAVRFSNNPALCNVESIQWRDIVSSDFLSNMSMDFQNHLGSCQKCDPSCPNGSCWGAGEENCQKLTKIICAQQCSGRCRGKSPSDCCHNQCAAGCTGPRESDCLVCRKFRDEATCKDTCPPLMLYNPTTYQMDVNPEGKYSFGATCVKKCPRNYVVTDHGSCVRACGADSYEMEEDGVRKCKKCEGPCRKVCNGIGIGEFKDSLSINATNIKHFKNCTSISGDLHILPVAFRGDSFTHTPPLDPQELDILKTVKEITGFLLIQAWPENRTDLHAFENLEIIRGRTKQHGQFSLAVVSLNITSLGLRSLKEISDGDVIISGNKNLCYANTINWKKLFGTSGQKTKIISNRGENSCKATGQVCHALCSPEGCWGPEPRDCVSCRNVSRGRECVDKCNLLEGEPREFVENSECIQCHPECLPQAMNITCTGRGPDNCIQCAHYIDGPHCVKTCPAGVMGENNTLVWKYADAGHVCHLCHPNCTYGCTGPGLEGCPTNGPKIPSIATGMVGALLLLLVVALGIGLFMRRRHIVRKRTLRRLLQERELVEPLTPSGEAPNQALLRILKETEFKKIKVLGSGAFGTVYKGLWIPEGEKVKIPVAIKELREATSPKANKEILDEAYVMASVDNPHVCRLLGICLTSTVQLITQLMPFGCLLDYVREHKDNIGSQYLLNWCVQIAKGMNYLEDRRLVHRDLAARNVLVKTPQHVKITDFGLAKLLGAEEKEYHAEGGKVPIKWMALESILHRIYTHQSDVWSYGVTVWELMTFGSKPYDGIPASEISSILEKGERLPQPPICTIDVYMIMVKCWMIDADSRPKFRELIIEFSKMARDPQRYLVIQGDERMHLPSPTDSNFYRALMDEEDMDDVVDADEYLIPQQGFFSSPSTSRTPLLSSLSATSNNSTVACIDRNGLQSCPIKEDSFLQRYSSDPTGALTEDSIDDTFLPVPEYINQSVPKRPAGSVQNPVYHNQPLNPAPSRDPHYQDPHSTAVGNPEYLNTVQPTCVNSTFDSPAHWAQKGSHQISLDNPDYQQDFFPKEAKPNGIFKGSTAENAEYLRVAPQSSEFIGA
Assay: ADP-Glo kinase assay, EGFR
Format: biochemical
Set-up: purchased BPS Bioscience (assay run externally by the vendor)
Conditions: Log[nM] 3.0; Set2
Collected EGFR % Activity Set2 values appear next to each entry.

| molecule | EGFR % Activity Set2 |
| --- | --- |
| Cc1ccc(Nc2ncnc3[nH]ccc23)cc1 [Compound 9] | 35% |
| Brc1cccc(Nc2ncnc3[nH]ccc23)c1 [Compound 2] | 1% |
| c1ccc(Cc2ccc(Nc3ncnc4[nH]ccc34)cc2)cc1 [Compound 18] | 8% |
| Clc1ccc(Nc2ncnc3[nH]ccc23)cc1Cl [Compound 5] | 2% |
| Cc1ccccc1Nc1ncnc2[nH]ccc12 [Compound 15] | 59% |
| Clc1ccccc1Nc1ncnc2[nH]ccc12 [Compound 14] | 27% |
| Brc1ccc(Nc2ncnc3[nH]ccc23)cc1 [Compound 10] | 12% |
| Clc1ccc(Nc2ncnc3[nH]ccc23)cc1 [Compound 4] | 10% |
| Fc1cc(Nc2ncnc3[nH]ccc23)ccc1Cl [Compound 3] | 1% |
| Clc1cccc(Nc2ncnc3[nH]ccc23)c1 [Compound 11] | 1% |
| Clc1ccc(Nc2ncnc3[nH]ccc23)cc1Br [Compound 7] | 2% |
| Cc1cccc(Nc2ncnc3[nH]ccc23)c1 [Compound 12] | 5% |
